System: phosphorylated γH2A.X and TP53BP1
Experiment: DNA damage marker analysis (immuno-staining)
Settings: human, 24 h
Catalogue of R = Potential DNA damaging values
Measured Quantity: R = Potential DNA damaging

[[record]]
compound = "CC1C(=O)C(C)C(c2cc(Cl)ccc2O)NC1c1cc(Cl)ccc1O (stereo not shown)"
measured_quantity = "R = Potential DNA damaging"
observed_measurement = 0

[[record]]
compound = "O=C(Nc1ccc(Cl)c(Cl)c1)c1ccc([N+](=O)[O-])o1"
measured_quantity = "R = Potential DNA damaging"
observed_measurement = 0

[[record]]
compound = "COc1cccc(/C=C2\\CN(C)C/C(=C\\c3cccc(OC)c3OC)C2=O)c1OC"
measured_quantity = "R = Potential DNA damaging"
observed_measurement = 0

[[record]]
compound = "Cc1ccc(S(=O)(=O)Nc2cccc3cccnc23)cc1"
measured_quantity = "R = Potential DNA damaging"
observed_measurement = 0

[[record]]
compound = "O=C(NCc1cccnc1)/C(=C\\c1cccc(Oc2ccccc2)c1)S(=O)(=O)c1ccccc1"
measured_quantity = "R = Potential DNA damaging"
observed_measurement = 0

[[record]]
compound = "O=C(/C(=C/c1ccc(Cl)cc1)c1nc2ccccc2[nH]1)c1ccccc1"
measured_quantity = "R = Potential DNA damaging"
observed_measurement = 0

[[record]]
compound = "O=C1NCCCc2cc(Cl)sc21"
measured_quantity = "R = Potential DNA damaging"
observed_measurement = 0

[[record]]
compound = "CNC(=O)/C(C#N)=C/c1c(Oc2ccc(C(C)(C)C)cc2)nc2ccccn2c1=O"
measured_quantity = "R = Potential DNA damaging"
observed_measurement = 0

[[record]]
compound = "Nc1ccccc1S(=O)(=O)Nc1cccc2cccnc12"
measured_quantity = "R = Potential DNA damaging"
observed_measurement = 1

[[record]]
compound = "O=C(Nc1cccc(C(F)(F)F)c1)c1ccc([N+](=O)[O-])o1"
measured_quantity = "R = Potential DNA damaging"
observed_measurement = 0


====

Tested on: WI-38 cells
Details: read-out: Est. ED50; dose response 0.6-20 μM; H2O2-resistance
pEC50: −log10 of the molar value.
Measured Quantity: pEC50

[[record]]
input_smiles = "CCc1ccc(Oc2nc3ccccn3c(=O)c2/C=C(\\C#N)C(=O)NCc2ccco2)cc1"
measured_quantity = "pEC50"
observed_measurement = 4.84

[[record]]
input_smiles = "Cc1cc(C)n(-c2nc(O)cc(-c3ccccc3)n2)n1"
measured_quantity = "pEC50"
observed_measurement = 5.27

[[record]]
input_smiles = "CCCCCCc1cc(C=O)c(O)cc1O"
measured_quantity = "pEC50"
observed_measurement = 4.82

[[record]]
input_smiles = "O=C(Nc1cccc(C(F)(F)F)c1)c1ccc([N+](=O)[O-])o1"
measured_quantity = "pEC50"
observed_measurement = 5.56

[[record]]
input_smiles = "Cc1sc2nc(SCC(=O)N3CCOCC3)nc(O)c2c1C"
measured_quantity = "pEC50"
observed_measurement = 4.70


====

Catalogue of Trials with lifespan extension values
Test system: C. elegans
Assay: C. elegans lifespan assays (liquid and plate)
Type: in vivo, Caenorhabditis elegans
Settings: positive of total trials
Measured Quantity: Trials with lifespan extension

[[record]]
input_smiles = "O=C(/C(=C/c1ccc(Cl)cc1)c1nc2ccccc2[nH]1)c1ccccc1"
observed_measurement = "4 of 4"

[[record]]
input_smiles = "O=C1NC(=O)c2cccc3cccc1c23"
observed_measurement = "4 of 4"

[[record]]
input_smiles = "N=C1S/C(=C\\c2cn(-c3ccccc3)nc2-c2cccs2)C(=O)N1c1nccs1"
observed_measurement = "3 of 3"

[[record]]
input_smiles = "COc1cccc(/C=C2\\CN(C)C/C(=C\\c3cccc(OC)c3OC)C2=O)c1OC"
observed_measurement = "3 of 4"

[[record]]
input_smiles = "Oc1ncnc2sc3c(c12)CCC3"
observed_measurement = "3 of 3"


====

System: WI-38 cells
Settings: read-out: Est. ED50; dose response 0.6-20 μM; H2O2-resistance
pEC50: −log10 of the molar value.
Catalogue of pEC50 values
Measured Quantity: pEC50

[[record]]
molecule = "COc1ccc(C(=O)/C=C/c2ccc(F)cc2)c(OC)c1 [Gr-4A]"
observed_measurement = 5.30

[[record]]
molecule = "Oc1nc(-c2ccccn2)nc2c1Cc1cc(F)ccc1O2 [O24]"
observed_measurement = 5.12

[[record]]
molecule = "O=C(NCc1cccnc1)/C(=C\\c1cccc(Oc2ccccc2)c1)S(=O)(=O)c1ccccc1 [Gr-7A]"
observed_measurement = 4.23

[[record]]
molecule = "O=C(Nc1cccc(Cl)c1)c1ccc([N+](=O)[O-])o1 [Gr-1D]"
observed_measurement = 5.57

[[record]]
molecule = "[O-][n+]1onc2c3nsnc3c(Br)cc21 [O17]"
observed_measurement = 5.07


====

Tested on: FOXO3
Test: qPCR analysis of FOXO3-regulated genes
Type: cell-based, human
Settings: Homo sapiens; qPCR; WI-38 cells; 10 μM, n=4, 24 hrs; normalized by B2M; read-out: TXNIP Normalized fold change
Method: For qPCR analysis, WI-38 cells were treated with small molecules (at 10 μM) (biological quadruplicates) for 24 hrs and processed for RNA isolation and reverse transcription (RT) with the Cells-to-Ct Kit (Life Technologies), following manufacturer's instructions. RT products were diluted with H2O and used for qPCR analysis on an ABI 7300 system (Life Technologies) (technical triplicates). Relative expression levels of target genes were normalized to the genes B2M, PPIA and GAPDH. […]
// assign Condition met if fold induction at 10 µM falls strictly below 1, else Condition not met (ties count as Condition not met)

[[record]]
input_smiles = "Cc1cc(N)n(-c2ccccc2C(=O)O)n1"
class_assignment = "Condition not met"

[[record]]
input_smiles = "[O-][n+]1onc2c3nsnc3c(Br)cc21"
class_assignment = "Condition met"

[[record]]
input_smiles = "CCc1ccccc1NC(=O)c1ccc([N+](=O)[O-])o1"
class_assignment = "Condition not met"

[[record]]
input_smiles = "O=[N+]([O-])c1ccccc1S(=O)(=O)Nc1cccc2cccnc12"
class_assignment = "Condition met"

[[record]]
input_smiles = "O=C(Nc1cccc(C(F)(F)F)c1)c1ccc([N+](=O)[O-])o1"
class_assignment = "Condition not met"

[[record]]
input_smiles = "Oc1ncnc2sc3c(c12)CCC3"
class_assignment = "Condition not met"

[[record]]
input_smiles = "O=C(c1ccc([N+](=O)[O-])o1)N1CCc2ccccc21"
class_assignment = "Condition met"

[[record]]
input_smiles = "CNC(=O)/C(C#N)=C/c1c(Oc2ccc(C(C)(C)C)cc2)nc2ccccn2c1=O"
class_assignment = "Condition met"

[[record]]
input_smiles = "O=C(/C(=C/c1ccc(Cl)cc1)c1nc2ccccc2[nH]1)c1ccccc1"
class_assignment = "Condition not met"

[[record]]
input_smiles = "O=C(NCc1cccnc1)/C(=C/c1ccc(-c2ccc(Cl)cc2)o1)S(=O)(=O)c1ccccc1"
class_assignment = "Condition met"

[[record]]
input_smiles = "CCCN1C/C(=C\\c2ccc(F)cc2)C(=O)/C(=C/c2ccc(F)cc2)C1"
class_assignment = "Condition met"


====

Catalogue of fold induction at 10 µM values
System: WI-38 cells
Assay: MMS resistance assay
Format: cell-based, human
Details: Homo sapiens, 12 h; Exp. 1, WI-38 cells, 10 uM, normalized ATP measurement; read-out: Exp. 1, under MMS stress treatment, at 10 uM (fold change)
Measured Quantity: fold induction at 10 µM

[[record]]
compound = "O=C(Nc1ccc(Cl)c(Cl)c1)c1ccc([N+](=O)[O-])o1"
measurement_target = "WI-38 cells"
observed_measurement = 1.32

[[record]]
compound = "O=C(Nc1cccc(Cl)c1)c1ccc([N+](=O)[O-])o1"
measurement_target = "WI-38 cells"
observed_measurement = 1.16

[[record]]
compound = "COc1cccc(/C=C2\\CN(C)C/C(=C\\c3cccc(OC)c3OC)C2=O)c1OC"
measurement_target = "WI-38 cells"
observed_measurement = 1.04

[[record]]
compound = "[O-][n+]1onc2c3nsnc3c(Br)cc21"
measurement_target = "WI-38 cells"
observed_measurement = 0.86

[[record]]
compound = "COC(=O)CCc1sc2c(c1[N+](=O)[O-])NC(=O)CCC2"
measurement_target = "WI-38 cells"
observed_measurement = 2.17

[[record]]
compound = "CC1C(=O)C(C)C(c2cc(Cl)ccc2O)NC1c1cc(Cl)ccc1O (stereo not shown)"
measurement_target = "WI-38 cells"
observed_measurement = 0.81

[[record]]
compound = "COc1ccc(/C=C2\\SC(=N)N(c3nccs3)C2=O)cc1"
measurement_target = "WI-38 cells"
observed_measurement = 0.74

[[record]]
compound = "O=C(NCc1cccnc1)/C(=C/c1ccc(-c2ccc(Cl)cc2)o1)S(=O)(=O)c1ccccc1"
measurement_target = "WI-38 cells"
observed_measurement = 1.14

[[record]]
compound = "Cc1cc(C)c(C(=O)/C=C/c2ccccc2F)c(O)n1"
measurement_target = "WI-38 cells"
observed_measurement = 1.11

[[record]]
compound = "O=[N+]([O-])c1ccccc1S(=O)(=O)Nc1cccc2cccnc12"
measurement_target = "WI-38 cells"
observed_measurement = 1


Where do the numbers come from? From patent US11413278B2.
